In this section, each of the molecules is paired with its reported Emax.
molecular target: F508del in NIH 3T3 cells (Homo sapiens, UniProt P13569, DEL508-508); construct: expressed in transfected cells; assay: 3T3 assay: membrane potential optical assay for F508del correction; assay type: cell-based, mouse; conditions: NIH3T3; F508del NIH 3T3 cells; efficacy compared to lumacaftor in combination with acutely added 300 nM Ivacaftor; read-out: 3T3 Max Activity (%)
Sequence (P13569 with tags, fused parts or gaps DEL508-508): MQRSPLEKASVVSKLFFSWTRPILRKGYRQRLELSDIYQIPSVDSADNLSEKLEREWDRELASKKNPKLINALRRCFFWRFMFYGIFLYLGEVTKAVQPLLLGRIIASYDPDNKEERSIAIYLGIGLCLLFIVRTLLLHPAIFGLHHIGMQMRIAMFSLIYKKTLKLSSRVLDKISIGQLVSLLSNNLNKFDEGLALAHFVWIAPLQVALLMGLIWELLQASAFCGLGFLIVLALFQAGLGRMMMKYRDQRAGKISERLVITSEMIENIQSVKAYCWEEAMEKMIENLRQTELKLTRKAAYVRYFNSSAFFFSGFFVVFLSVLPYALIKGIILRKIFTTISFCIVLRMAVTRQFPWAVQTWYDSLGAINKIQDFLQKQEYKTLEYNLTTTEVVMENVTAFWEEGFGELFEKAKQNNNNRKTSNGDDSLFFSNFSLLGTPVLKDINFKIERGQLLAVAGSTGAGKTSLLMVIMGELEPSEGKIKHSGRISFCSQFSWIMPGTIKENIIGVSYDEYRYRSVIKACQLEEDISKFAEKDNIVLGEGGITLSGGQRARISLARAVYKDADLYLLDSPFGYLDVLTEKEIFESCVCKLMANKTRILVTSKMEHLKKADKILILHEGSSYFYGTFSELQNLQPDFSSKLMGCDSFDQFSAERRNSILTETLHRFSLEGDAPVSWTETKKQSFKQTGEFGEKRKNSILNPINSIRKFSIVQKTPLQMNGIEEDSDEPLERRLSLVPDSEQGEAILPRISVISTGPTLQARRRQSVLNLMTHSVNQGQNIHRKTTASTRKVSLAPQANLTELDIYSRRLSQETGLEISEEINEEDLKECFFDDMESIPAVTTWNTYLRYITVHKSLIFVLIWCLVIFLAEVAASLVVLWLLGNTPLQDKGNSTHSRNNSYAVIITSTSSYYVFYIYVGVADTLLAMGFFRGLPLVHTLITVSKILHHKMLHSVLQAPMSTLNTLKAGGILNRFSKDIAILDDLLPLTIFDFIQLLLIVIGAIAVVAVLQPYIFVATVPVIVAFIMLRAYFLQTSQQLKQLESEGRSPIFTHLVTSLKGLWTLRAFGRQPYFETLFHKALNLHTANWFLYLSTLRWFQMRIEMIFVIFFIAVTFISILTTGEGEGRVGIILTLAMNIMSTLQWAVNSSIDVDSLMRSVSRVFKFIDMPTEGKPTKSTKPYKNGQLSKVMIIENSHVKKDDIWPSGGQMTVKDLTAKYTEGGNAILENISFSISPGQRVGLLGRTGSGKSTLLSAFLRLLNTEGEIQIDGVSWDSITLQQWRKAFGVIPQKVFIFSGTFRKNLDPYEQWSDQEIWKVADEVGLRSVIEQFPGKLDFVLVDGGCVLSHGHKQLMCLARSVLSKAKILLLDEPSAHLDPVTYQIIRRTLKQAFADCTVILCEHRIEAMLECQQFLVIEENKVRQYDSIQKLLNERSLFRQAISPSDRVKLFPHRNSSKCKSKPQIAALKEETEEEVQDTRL

CC(C)(C)C1CCc2nc(NS(=O)(=O)c3ccccc3)ncc2C1 (centres unmarked)	< 30%
COc1ccccc1S(=O)(=O)Nc1nn(-c2c(C)cc(C)cc2C)c2nc(C(C)(C)C)ccc12	30 to 60%
Cc1ccccc1Oc1nc(NS(=O)(=O)c2cnn(C)c2)nc2c1CCC(C)(C)C2	> 60%
Cc1cc(C)c(-n2nc(NS(=O)(=O)c3cccc(N)c3)c3ccc(C(C)(C)C)nc32)c(C)c1	30 to 60%
Cc1cc(C)c(-n2nc(NS(=O)(=O)c3cccc(N)n3)c3ccc(C(C)(C)C)nc32)c(C)c1	30 to 60%
Cc1cc(C)c(-n2nc(NS(=O)(=O)c3cccc4c3OCCO4)c3ccc(C(C)(C)C)nc32)c(C)c1	30 to 60%
Cc1cc(C)cc(-n2c(NS(=O)(=O)c3ccccc3)nc3ccc(C(C)(C)C)cc32)c1	< 30%
Cc1cc(NS(=O)(=O)c2ccccc2)nc2ccccc12	< 30%

Let me know recorded Emax for Cc1ccccc1Oc1nc(NS(=O)(=O)c2cnn(C)c2)nc2c1CCc1ccccc1-2 , thanks.
> 60%

Complete the entry with Emax for CC(C)(C)c1ccc2c(NS(=O)(=O)c3ccccc3)nn(-c3cccc(Cl)c3)c2n1
30 to 60%

Give the reported value of Emax for this record: CC1CCc2nc(NS(=O)(=O)c3ccccc3)sc2C1 (centres unmarked)
< 30%

Using known records, supply Emax for Cc1cc(C)c(-n2nc(NS(=O)(=O)c3cn[nH]c3)c3ccc(C(C)(C)C)nc32)c(C)c1
> 60%

Let me know recorded Emax for CC(C)(C)c1ccc2nc(NS(=O)(=O)c3ccccc3)[nH]c2c1 , thanks.
< 30%

For Cc1cc(C)c(-n2nc(NS(=O)(=O)c3ccccc3Cl)c3ccc(C(C)(C)C)nc32)c(C)c1 , write its Emax.
< 30%
